# System: UniProtKB P08172
# Sequence (whole entry): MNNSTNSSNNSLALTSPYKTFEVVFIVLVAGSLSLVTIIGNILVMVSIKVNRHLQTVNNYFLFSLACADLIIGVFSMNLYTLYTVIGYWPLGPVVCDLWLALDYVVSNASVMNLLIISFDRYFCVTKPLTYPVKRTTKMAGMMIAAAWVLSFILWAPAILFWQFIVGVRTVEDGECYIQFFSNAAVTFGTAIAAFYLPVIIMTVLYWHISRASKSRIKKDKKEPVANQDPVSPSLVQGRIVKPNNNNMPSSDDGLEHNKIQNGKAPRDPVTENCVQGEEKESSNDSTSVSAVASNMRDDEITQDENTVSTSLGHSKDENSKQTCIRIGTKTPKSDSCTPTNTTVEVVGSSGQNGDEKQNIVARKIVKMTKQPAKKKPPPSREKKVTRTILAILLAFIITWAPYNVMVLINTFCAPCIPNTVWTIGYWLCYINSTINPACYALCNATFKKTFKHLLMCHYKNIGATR
# Test Context: Compound concentration 10 µM
# Description: PDSP Primary Binding target: CHRM2 - Compounds are tested at 10 uM concentration, plate are incubated at room temperature in the dark for 90 minutes. Reaction are stopped by vacuum filtration onto 0.3% polyethyleneimine soaked filter mats using Filtermate harvester. Scintilation cocktail is then melted onto microwave-dried filters on a hot plate and the radio activity is counted in Microbia counter.
If the reported inhibition equals or exceeds 30%, assign 1. If not, assign 0.

Could you please find out whether `COC(=O)C1=C(C)NC(C)=C(C(=O)OCCCN2CCC(c3ccccc3)(c3ccccc3)CC2)[C@H]1c1cccc([N+](=O)[O-])c1` has inhibition that meets 30% or exceeds it?
1

Check `COc1cc2nc(N3CCN(C(=O)c4ccco4)CC3)nc(N)c2cc1OC` too.
0

Check `CCN(CC)CCCCC1CCN(CC(=O)N2c3ccccc3C(=O)Nc3cccnc32)CC1` too.
1

Check `Cc1cc(NC(=O)Nc2ccc(N(C)C)cc2)c2cc(F)cc(F)c2n1` too.
1

Check `COc1ccc2cc(S(=O)(=O)N[C@H](CC(=O)N[C@H](Cc3ccc(CN4[C@H](C)CCC[C@@H]4C)cc3)C(=O)N(C)C(C)C)c3ccc4c(c3)OCO4)ccc2c1` too.
1

Check `CC1=C2C[C@H]3[C@@H](CC=C4C[C@@H](O)CC[C@@]43C)[C@@H]2CC[C@]12O[C@@H]1C[C@H](C)CN[C@H]1[C@H]2C` too.
0

Check `CCCCC#Cc1nc(NC)c2ncn([C@@H]3O[C@H](CO)[C@@H](O)[C@H]3O)c2n1` too.
0

Check `O=C1O[C@]2(CC[C@H](C(=O)Nc3ccn(-c4ccccc4F)n3)CC2)c2cnccc21` too.
0

Check `N#Cc1cccc(C(=O)Nc2cc(-c3ccccc3)nn2-c2ccccc2)c1` too.
0

Check `Clc1cccc(COc2cncc(N3CCNCC3)n2)c1` too.
1

Check `CCCCc1nc(Cl)c(CO)n1Cc1ccc(-c2ccccc2-c2nnn[nH]2)cc1` too.
0

Check `c1nc(CC2CCNCC2)c[nH]1` too.
0

Check `CN1CCN(c2ccc(Nc3c4ccccc4nc4ccccc34)cc2)CC1` too.
1

Check `CCOC(=O)c1cc(C#N)c(N2CCC(C(=O)NS(=O)(=O)Cc3ccccc3)CC2)nc1C` too.
1

Check `NCCc1c[nH]c2ccc(C(N)=O)cc12` too.
0

Check `COc1ccc(Br)cc1S(=O)(=O)NC(=O)/C=C/c1ccccc1Cc1ccc2ccccc2c1` too.
1

Source: ChEMBL document CHEMBL5442219
